- target-or-system: UniProtKB Q99572
- test-details: P2X7 antagonism in human whole blood, IL-1β release (LPS + Bz-ATP, ELISA)
- Type: cell-based
- condition-summary: Human Whole Blood IC50 (μM), LPS 30 ng/ml + Bz-ATP 1 mM
- Description: P2X7 Antagonism in Human Peripheral Blood Mononuclear Cells (PBMCs) and Human Whole Blood. Human blood was collected using a blood donor program. PBMCs were isolated from blood using a Ficoll density gradient technique. […] Data was expressed as percent control, where control is defined as the difference in IL-1β release in LPS+Bz-ATP samples and LPS only samples. […] Data are analyzed and graphed on Graphpad Prism 5. […]
reported-property: IC50 (µM)
Just the number in µM, nothing appended.

Worked examples follow.
Cc1nc(-c2cnccn2)c2c(n1)[C@H]1CCC[C@@H](C2)N1C(=O)c1ccc(Cl)c(F)c1Cl [Example 47]: 0.04
Cc1nc(-c2cnn(C)c2)c2c(n1)[C@H]1CCC[C@@H](C2)N1C(=O)c1cccc(C(F)(F)F)c1C [Example 39]: 1.09
Cc1nc(-c2ccc(F)cc2)c2c(n1)[C@H]1CCC[C@@H](C2)N1C(=O)c1cccc(Cl)c1Cl [Example 55]: 0.037

Exercise: Look up IC50 for this compound: Cc1nc(-c2ccnn2C)c2c(n1)[C@H]1CCC[C@@H](C2)N1C(=O)c1ccnc(C(F)(F)F)c1Cl [Example 60]
Key: 1.98

Exercise: Then Cc1nc(-c2ccc(F)cc2)c2c(n1)[C@@H]1CCC[C@H](C2)N1C(=O)c1ccc(F)c(Cl)c1Cl [Example 17] ?
Key: 2.02

Exercise: Then Cc1nc(-c2ccn[nH]2)c2c(n1)[C@@H]1CCC[C@H](C2)N1C(=O)c1ccnc(C(F)(F)F)c1Cl [Example 7] ?
Key: 2.35

Exercise: Then Cc1nc(-c2ccnn2C)c2c(n1)[C@H]1CCC[C@@H](C2)N1C(=O)c1cccc(C(F)(F)F)c1Cl [Example 56] ?
Key: 0.048

Exercise: Then Cc1nc(-c2ccc(F)cc2)c2c(n1)[C@@H]1CCC[C@H](C2)N1C(=O)c1cccc(C(F)(F)F)c1Cl [Example 13] ?
Key: 5.08

---

- target-or-system: P2X7 (Homo sapiens (Human))
- Sequence (Q99572 whole entry): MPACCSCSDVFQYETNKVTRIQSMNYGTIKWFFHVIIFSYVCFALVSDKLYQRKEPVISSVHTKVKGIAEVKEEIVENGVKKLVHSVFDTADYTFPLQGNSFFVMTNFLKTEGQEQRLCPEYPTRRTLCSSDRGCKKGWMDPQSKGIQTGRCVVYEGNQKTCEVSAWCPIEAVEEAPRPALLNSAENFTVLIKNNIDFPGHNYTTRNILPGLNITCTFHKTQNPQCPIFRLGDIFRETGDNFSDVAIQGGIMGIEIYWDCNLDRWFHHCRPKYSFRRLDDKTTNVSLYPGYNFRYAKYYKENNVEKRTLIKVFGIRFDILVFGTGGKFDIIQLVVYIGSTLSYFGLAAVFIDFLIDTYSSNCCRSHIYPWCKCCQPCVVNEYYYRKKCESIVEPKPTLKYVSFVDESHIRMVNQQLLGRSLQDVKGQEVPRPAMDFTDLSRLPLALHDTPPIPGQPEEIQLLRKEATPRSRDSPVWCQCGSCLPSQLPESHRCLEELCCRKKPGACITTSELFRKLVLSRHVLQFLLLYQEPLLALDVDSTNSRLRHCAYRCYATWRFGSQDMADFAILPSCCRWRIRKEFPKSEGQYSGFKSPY
- test-details: P2X7 antagonism in human whole blood, IL-1β release (LPS + Bz-ATP, ELISA)
- Assay type: cell-based
- condition-summary: Human Whole Blood IC50 (μM), LPS 30 ng/ml + Bz-ATP 1 mM
- Protocol: P2X7 Antagonism in Human Peripheral Blood Mononuclear Cells (PBMCs) and Human Whole Blood. Human blood was collected using a blood donor program. PBMCs were isolated from blood using a Ficoll density gradient technique. […] Data was expressed as percent control, where control is defined as the difference in IL-1β release in LPS+Bz-ATP samples and LPS only samples. […] Data are analyzed and graphed on Graphpad Prism 5. […]
As shown below, each of these compounds has a reported IC50 value.
Just the number in µM, nothing appended.

Cc1nc(-c2ccccn2)c2c(n1)[C@H]1CCC[C@@H](C2)N1C(=O)c1cccc(C(F)(F)F)c1C [Example 62]: 0.058

Exercise: Return IC50 measured with P2X7 (Homo sapiens (Human)) given this compound: Cc1nc(-c2ccn[nH]2)c2c(n1)[C@H]1CCC[C@@H](C2)N1C(=O)c1ccc(Cl)cc1Cl [Example 20]
Key: 0.221

Exercise: Then Cc1nc(-c2ccn[nH]2)c2c(n1)[C@@H]1CCC[C@H](C2)N1C(=O)c1cccc(Cl)c1Cl [Example 11] ?
Key: 0.302

Exercise: Then Cc1nc(-c2cnn(C)c2)c2c(n1)[C@H]1CCC[C@@H](C2)N1C(=O)c1ccnc(C(F)(F)F)c1Cl [Example 32] ?
Key: 1.58

Exercise: Then Cc1nc(-c2ccn[nH]2)c2c(n1)[C@H]1CCC[C@@H](C2)N1C(=O)c1cccc(Cl)c1Cl [Example 29] ?
Key: 0.008

Exercise: Then Cc1nc(-c2cnn(C)c2)c2c(n1)[C@H]1CCC[C@@H](C2)N1C(=O)c1cccc(Cl)c1Cl [Example 31] ?
Key: 2.67

Hello, the source for this data is patent US10150766B2, in case you need it.
